Test system: K-562 leukemia
Experiment: NCI-60 one-dose screen, 48 h (100 = growth as untreated, 0 = no growth, -100 = all killed)
Conditions: 10 µM unless noted
About 83,000 compounds went through this panel and 20% of them were active in at least one assay; those are over-represented in the sample as a whole.
Threshold check on growth: strictly below 90% is yes; on or above 90% is no.

COMPOUND	LABEL_CLASS
O=C(Nc1ccc(-n2cc(-c3ccncc3)c(-c3ccc(O)c(Cl)c3)n2)cc1)c1cc(C(F)(F)F)cc(C(F)(F)F)c1	yes
COc1ccc2c(c1)OC(N(C(C)=O)C(C)=O)=C(C#N)C2c1ccc(F)cc1 (stereo not given)	yes
O=C1OC(N(Cc2ccc(Cl)cc2)c2ccccc2)c2ccccc21 (stereo not given)	yes
O=[N+]([O-])c1ccccc1NC1c2ccccc2Oc2ccccc21	yes
COc1cc2ncn3c(=O)c4c5c(sc4nc3c2cc1OC)CCCCC5	no
Cc1cc2nc(-c3c(N)ncc(C#N)c3-c3ccc(Cl)cc3)[nH]c2cc1C	yes
CC(Cc1cccc(C(F)(F)F)c1)NCCOC(=O)c1ccccc1 (stereo not given)	no
CC(CCC(=O)O)[C@H]1CCC2C3C(=O)C[C@@H]4CC(=O)CC[C@]4(C)C3CC(=O)[C@@]21C (stereo not given in full)	no

Inquiry: Report whether reported growth is lower than 90% (strictly) for CSc1nc(N)nc2c1ncn2C
Reply text: no

Inquiry: Query COc1ccc(C[C@H](N)C(=O)N[C@@H]2[C@@H](CO)OC(n3cnc4c(N(C)C)ncnc43)[C@@H]2O)cc1 (stereo not given in full) next
Reply text: yes
